# Test system: corn (Zea mays)
# Assay details: Test C pre/postemergence
# Type: in vivo
# Condition set: Zea mays, pre-emergence, Preemergence, 500 g ai/ha; scale 0 to 100
As shown below, each of these molecules has a reported Corn plant response rating (crop injury, 0 = no effect, 100 = complete kill) at 500 g/ha value.
Assay endpoint: Corn plant response rating (crop injury, 0 = no effect, 100 = complete kill) at 500 g/ha

                         record_smiles  test_result
0              Nc1nc(C2CC2)nc(C=O)c1Br          20%
1         CCOC(=O)c1nc(C2CC2)nc(N)c1Cl          90%
2         CNc1nc(C2CC2)nc(C(=O)OC)c1Br          50%
3  Nc1nc(C2CC2)nc(C(=O)OCc2ccccc2)c1Br          65%
